- System: A-549
- assayRemarks: Inhibition of cells growth by colorimetric assay (SRB), A-549
- Assay type: cell-based
- assaySetup: Homo sapiens, A549, 48 h, read-out: LC50 A-549, A-549; SRB, 48 hours exposure
parameter: log10 of LC50 (concentration for 50% cell killing) (log10 of the value in nM)
The common logarithm of LC50 (concentration for 50% cell killing) in nM is what is listed.

Worked cases, answers included:
C=COC(=O)Oc1cc2c(cc1OC)[C@@]1(CS[C@@H]3c4c(OC(C)=O)c(C)c5c(c4[C@H](COC1=O)N1C3[C@H]3c4c(cc(C)c(OC)c4O)C[C@@H]([C@@H]1C#N)N3C)OCO5)NCC2 (some centres unmarked) [Compound 29]    1.03
COc1cc2c(cc1OC)[C@@]1(CS[C@@H]3c4c(OC(C)=O)c(C)c5c(c4[C@H](COC1=O)N1C3[C@H]3c4c(cc(C)c(OC)c4OC)C[C@@H]([C@@H]1C#N)N3C)OCO5)NCC2 (some centres unmarked) [Compound 35]    3.33
COc1cc2c(cc1O)CCN[C@]21CS[C@@H]2c3c(OC(C)=O)c(C)c4c(c3[C@H](COC1=O)N1C2[C@H]2c3c(cc(C)c(OC)c3OC)C[C@@H]([C@@H]1C#N)N2C)OCO4 (some centres unmarked) [Compound 36]    3.62
COc1cc2c(cc1OC)[C@@]1(CS[C@@H]3c4c(OC(C)=O)c(C)c5c(c4[C@H](COC1=O)N1C3[C@H]3c4c(cc(C)c(OC)c4O)C[C@@H]([C@@H]1C#N)N3C)OCO5)NCC2 (some centres unmarked) [Compound 34]    0.96

Let us examine a further case.
Give A-549 log10 of LC50 (concentration for 50% cell killing) for COc1cc2c(cc1OC(=O)CCCl)CCN[C@]21CS[C@@H]2c3c(OC(C)=O)c(C)c4c(c3[C@H](COC1=O)N1C2[C@H]2c3c(cc(C)c(OC)c3O)C[C@@H]([C@@H]1O)N2C)OCO4 (some centres unmarked) [Compound 73]
0.77
